- target of assay: ΔF508 CFTR (Homo sapiens, UniProt P13569, DEL508-508)
- Sequence (P13569 with tags, fused parts or gaps DEL508-508): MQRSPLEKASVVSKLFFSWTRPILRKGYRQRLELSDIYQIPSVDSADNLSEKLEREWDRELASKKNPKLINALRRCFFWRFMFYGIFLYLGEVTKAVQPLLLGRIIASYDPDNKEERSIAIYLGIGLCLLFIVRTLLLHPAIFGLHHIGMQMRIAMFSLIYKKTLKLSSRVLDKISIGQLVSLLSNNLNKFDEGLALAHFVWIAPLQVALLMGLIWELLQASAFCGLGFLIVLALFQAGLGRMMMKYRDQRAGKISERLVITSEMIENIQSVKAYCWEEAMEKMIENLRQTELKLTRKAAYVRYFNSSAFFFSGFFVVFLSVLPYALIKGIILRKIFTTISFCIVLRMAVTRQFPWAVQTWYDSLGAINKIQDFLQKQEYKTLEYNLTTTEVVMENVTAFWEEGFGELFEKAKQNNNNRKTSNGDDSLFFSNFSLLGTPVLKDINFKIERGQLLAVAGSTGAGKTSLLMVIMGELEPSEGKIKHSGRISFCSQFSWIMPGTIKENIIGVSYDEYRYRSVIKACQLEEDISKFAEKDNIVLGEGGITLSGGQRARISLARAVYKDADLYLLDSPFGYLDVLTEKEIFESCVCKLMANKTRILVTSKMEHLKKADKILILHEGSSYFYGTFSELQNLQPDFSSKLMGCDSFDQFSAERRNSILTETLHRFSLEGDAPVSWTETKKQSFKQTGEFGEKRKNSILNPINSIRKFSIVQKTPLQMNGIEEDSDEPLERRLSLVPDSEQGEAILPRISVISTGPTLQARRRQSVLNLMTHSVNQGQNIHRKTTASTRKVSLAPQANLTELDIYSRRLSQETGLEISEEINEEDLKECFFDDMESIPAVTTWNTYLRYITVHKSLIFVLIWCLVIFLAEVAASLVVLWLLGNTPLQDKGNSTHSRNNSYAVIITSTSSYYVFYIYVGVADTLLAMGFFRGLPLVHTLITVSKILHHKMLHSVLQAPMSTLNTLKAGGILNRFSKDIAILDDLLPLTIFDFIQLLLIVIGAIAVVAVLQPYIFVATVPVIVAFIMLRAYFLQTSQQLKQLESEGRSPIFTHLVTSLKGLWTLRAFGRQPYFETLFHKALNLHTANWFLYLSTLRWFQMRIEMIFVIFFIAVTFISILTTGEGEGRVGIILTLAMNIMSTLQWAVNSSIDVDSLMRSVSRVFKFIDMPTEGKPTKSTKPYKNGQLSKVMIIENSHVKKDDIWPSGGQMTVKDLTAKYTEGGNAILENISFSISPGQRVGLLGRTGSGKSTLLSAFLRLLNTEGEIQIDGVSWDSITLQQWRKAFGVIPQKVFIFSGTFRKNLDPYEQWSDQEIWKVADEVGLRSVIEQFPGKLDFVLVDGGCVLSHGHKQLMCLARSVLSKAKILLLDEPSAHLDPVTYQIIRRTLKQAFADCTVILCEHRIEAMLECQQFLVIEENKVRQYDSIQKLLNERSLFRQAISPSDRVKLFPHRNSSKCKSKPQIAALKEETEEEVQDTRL
- assay overview: Potentiator activity, YFP halide (iodide) quenching assay in FRT cells expressing ΔF508 CFTR, 27° C. pre-incubation
- Format: cell-based
- Parameters: expressed in transfected cells; host or cells: Fischer rat thyroid (FRT) cells
- condition: FRT cells ΔF508 CFTR/YFP, 24 hours at 27° C., compound with forskolin 30 min
- Protocol: Fisher rat thyroid (FRT) cells stably expressing ΔF508 CFTR and a halide-sensitive variant of yellow fluorescent protein (YFP) were seeded into microtiter plates and allowed to grow for 24 hours at 37° C. and 5% CO2, as described above. […] Compounds in DMSO solution were pre-diluted into phosphate-buffered saline solution (PBS) containing forskolin. […] After 30 min of incubation at 37° C., the plates were placed in a fluorescence plate reader equipped with a reagent injector. […]

compound: Nc1ncnc2c1c(-c1ccc(Cl)cc1)cn2Cc1ccccc1
target of assay: ΔF508 CFTR (Homo sapiens, UniProt P13569, DEL508-508)
EC50: < 2 µM
//
compound: CCn1nc(Sc2ccc(F)cc2)c2c(N)ncnc21
target of assay: ΔF508 CFTR (Homo sapiens, UniProt P13569, DEL508-508)
EC50: < 2 µM
//
compound: CC(C)(C)n1nc(S(=O)(=O)c2ccccc2)c2c(N)ncnc21
target of assay: ΔF508 CFTR (Homo sapiens, UniProt P13569, DEL508-508)
EC50: 5 to 10 µM
//
compound: CCn1nc(Sc2ccccn2)c2c(N)ncnc21
target of assay: ΔF508 CFTR (Homo sapiens, UniProt P13569, DEL508-508)
EC50: > 15 µM
//
compound: CCn1nc(Nc2cccc3ccccc23)c2c(N)ncnc21
target of assay: ΔF508 CFTR (Homo sapiens, UniProt P13569, DEL508-508)
EC50: > 15 µM
//
compound: CCC(=O)Nc1ncnc2c1c(-c1ccc(Cl)cc1)nn2C(C)(C)C
target of assay: ΔF508 CFTR (Homo sapiens, UniProt P13569, DEL508-508)
EC50: < 2 µM
//
compound: Cc1cccc(Oc2nn(C(C)(C)C)c3ncnc(N)c23)c1C
target of assay: ΔF508 CFTR (Homo sapiens, UniProt P13569, DEL508-508)
EC50: < 2 µM
//
compound: CCn1nc(Nc2ccc3c(c2)OC(F)(F)O3)c2c(N)ncnc21
target of assay: ΔF508 CFTR (Homo sapiens, UniProt P13569, DEL508-508)
EC50: 2 to 5 µM
//
compound: CC(C)(C)n1nc(Oc2cccc(C#N)c2)c2c(N)ncnc21
target of assay: ΔF508 CFTR (Homo sapiens, UniProt P13569, DEL508-508)
EC50: 5 to 10 µM
//
compound: CC(=O)C1CC(n2nc(Sc3ccccc3)c3c(N)ncnc32)C1 (centres unmarked)
target of assay: ΔF508 CFTR (Homo sapiens, UniProt P13569, DEL508-508)
EC50: > 15 µM
//
compound: CCn1nc(-c2ccc(Cl)cc2)c2c(N)ncnc21 [compound 31]
target of assay: ΔF508 CFTR (Homo sapiens, UniProt P13569, DEL508-508)
EC50: > 15 µM
//
compound: CCn1cc(-c2ccc(Cl)cc2)c2c(NC(=O)C(C)C)ncnc21
target of assay: ΔF508 CFTR (Homo sapiens, UniProt P13569, DEL508-508)
EC50: 5 to 10 µM
//
compound: CCn1cc(-c2ccc(C)cc2)c2c(N)ncnc21
target of assay: ΔF508 CFTR (Homo sapiens, UniProt P13569, DEL508-508)
EC50: 5 to 10 µM
//
compound: Cc1ccccc1Oc1nn(C(C)(C)C)c2ncnc(N)c12
target of assay: ΔF508 CFTR (Homo sapiens, UniProt P13569, DEL508-508)
EC50: < 2 µM
//
compound: Cc1ccc(-c2nn(C(C)(C)C)c3ncnc(NC(=O)c4ccccc4Cl)c23)cc1
target of assay: ΔF508 CFTR (Homo sapiens, UniProt P13569, DEL508-508)
EC50: 2 to 5 µM
//
compound: CC(C)(C)OC(=O)N1CC(n2nc(Sc3ccccc3)c3c(N)ncnc32)C1
target of assay: ΔF508 CFTR (Homo sapiens, UniProt P13569, DEL508-508)
EC50: 2 to 5 µM
//
compound: CCn1cc(-c2ccc(Cl)cc2)c2c(NC(=O)c3ccc(F)cc3)ncnc21
target of assay: ΔF508 CFTR (Homo sapiens, UniProt P13569, DEL508-508)
EC50: > 15 µM
//
compound: Nc1ncnc2c1c(-c1ccc(Cl)cc1)nn2C1CCC1
target of assay: ΔF508 CFTR (Homo sapiens, UniProt P13569, DEL508-508)
EC50: < 2 µM
//
compound: Nc1ncnc2c1c(Oc1cccc(Cl)c1)nn2CC1CC1
target of assay: ΔF508 CFTR (Homo sapiens, UniProt P13569, DEL508-508)
EC50: < 2 µM
//
compound: Cc1ccc(Oc2nn(C(C)(C)C)c3ncnc(N)c23)cc1C
target of assay: ΔF508 CFTR (Homo sapiens, UniProt P13569, DEL508-508)
EC50: < 2 µM
//
compound: CC(C)(C)Cn1cc(-c2ccc(Cl)cc2)c2c(N)ncnc21
target of assay: ΔF508 CFTR (Homo sapiens, UniProt P13569, DEL508-508)
EC50: 2 to 5 µM
//
compound: CCC(C)Cn1cc(-c2ccc(Cl)cc2)c2c(N)ncnc21 (centres unmarked)
target of assay: ΔF508 CFTR (Homo sapiens, UniProt P13569, DEL508-508)
EC50: 2 to 5 µM
//
compound: CC(C)C(=O)Nc1ncnc2c1c(-c1ccc(Cl)cc1)nn2C(C)(C)C
target of assay: ΔF508 CFTR (Homo sapiens, UniProt P13569, DEL508-508)
EC50: < 2 µM
//
compound: CCn1nc(Sc2cccc3ccccc23)c2c(N)ncnc21
target of assay: ΔF508 CFTR (Homo sapiens, UniProt P13569, DEL508-508)
EC50: < 2 µM
//
compound: Cc1ccc(F)c(Oc2nn(C(C)(C)C)c3ncnc(N)c23)c1
target of assay: ΔF508 CFTR (Homo sapiens, UniProt P13569, DEL508-508)
EC50: > 15 µM
//
compound: Cn1cc(-c2ccc(Cl)cc2)c2c(N)ncnc21
target of assay: ΔF508 CFTR (Homo sapiens, UniProt P13569, DEL508-508)
EC50: > 15 µM
//
compound: CCn1cc(-c2ccc(Cl)cc2)c2c(N(C)C(C)=O)ncnc21
target of assay: ΔF508 CFTR (Homo sapiens, UniProt P13569, DEL508-508)
EC50: > 15 µM
//
compound: CCn1nc(Sc2cccc(C(F)(F)F)c2)c2c(N)ncnc21
target of assay: ΔF508 CFTR (Homo sapiens, UniProt P13569, DEL508-508)
EC50: < 2 µM
//
compound: CC(C)(C)n1nc(-c2cccc(Oc3ccccc3)c2)c2c(N)ncnc21
target of assay: ΔF508 CFTR (Homo sapiens, UniProt P13569, DEL508-508)
EC50: > 15 µM
//
compound: Nc1ncnc2c1c(Oc1cccc(Cl)c1)nn2CC1CCC1
target of assay: ΔF508 CFTR (Homo sapiens, UniProt P13569, DEL508-508)
EC50: < 2 µM
//
compound: Nc1ncnc2c1c(-c1ccc(Cl)cc1)nn2-c1ccc([N+](=O)[O-])cn1
target of assay: ΔF508 CFTR (Homo sapiens, UniProt P13569, DEL508-508)
EC50: > 15 µM
//
compound: CCn1nc(Sc2cccc(Br)c2)c2c(N)ncnc21
target of assay: ΔF508 CFTR (Homo sapiens, UniProt P13569, DEL508-508)
EC50: < 2 µM

###

- target of assay: ΔF508 CFTR (Homo sapiens, UniProt P13569, DEL508-508)
- assay overview: Corrector activity, YFP halide (iodide) quenching assay in FRT cells expressing ΔF508 CFTR
- Assay type: cell-based
- Parameters: expressed in transfected cells; host or cells: Fischer rat thyroid (FRT) cells
- condition: FRT cells ΔF508 CFTR/YFP, 24 hours with compound at 37° C., forskolin and genistein; read-out: Corrector EC50
pEC50: −log10 of the molar value.

compound: CCNC(=O)N1CCC(n2nc(-c3ccc(Cl)cc3)c3c(N)ncnc32)CC1
pEC50: < 4.82

compound: CC(C)(C)n1cc(-c2ccc(Cl)cc2)c2c(NC(=O)C3CCCO3)ncnc21 (centres unmarked) [compound 373]
pEC50: 5.00 to 5.30

compound: CCn1nc([S+]([O-])c2cc(F)cc(F)c2)c2c(N)ncnc21 (centres unmarked)
pEC50: < 4.82

compound: Nc1ncnc2c1c(-c1ccc(Cl)cc1)cn2Cc1ccccc1
pEC50: < 4.82

compound: CC(C)OC(=O)Nc1ncnc2c1c(-c1ccc(Cl)cc1)nn2C(C)(C)C
pEC50: 5.00 to 5.30

Hey, just so you know, these numbers are from patent US20100331297A1.
